Ref: PubChem BioAssay AID588591

assayedTarget: DNA polymerase eta (Homo sapiens)
assayProtocol: qHTS for Inhibitors of Polymerase Eta
reportedConditions: recombinant Pol eta, fluorescent DNA replication assay; series mostly up to 114 µM
The campaign covered roughly 390,000 compounds. About 4,700 (1.2%) were called active. Inconclusive results (about 4%) are left out. Calls follow the shape of the dose curve; as a rule, active = well fitted inhibition curve with a large enough effect; inconclusive = small, poorly fitted or top-dose-only effect, or another doubt; inactive = no such curve, though single readings can be large or run the other way. The entries come from a sample that favours actives as a whole.
Answer with one of the outcomes active, inactive

Example entries begin here.
compound	assayedTarget	category
CC(C)CN(CC(C)C)C(=O)CN1c2cccc3cccc(c23)S1(=O)=O	DNA polymerase eta (Homo sapiens)	inactive
Cn1c(=O)sc2cc(NS(=O)(=O)c3ccc(C(C)(C)C)cc3)ccc21	DNA polymerase eta (Homo sapiens)	inactive
COC(=O)Nc1ccc(S(=O)(=O)Nc2cc(OC)nc(OC)n2)cc1	DNA polymerase eta (Homo sapiens)	inactive
CCC(=O)N1CCc2cc(Br)cc(S(=O)(=O)CCC(=O)N3CCN(c4ccc(F)cc4)CC3)c21	DNA polymerase eta (Homo sapiens)	inactive
O=C(NCCc1ccccc1)c1cnc2sc(N3CCCC3)nn2c1=O	DNA polymerase eta (Homo sapiens)	inactive
COc1cc(NS(=O)(=O)c2ccc(NC(=S)NC(=O)c3ccccc3)cc2)nc(OC)n1	DNA polymerase eta (Homo sapiens)	inactive

Q. // outcome(item) with item = CCOC(=O)c1c(S(=O)(=O)N2CCCC(C(=O)NCc3cccc(C)c3)C2)c(C)n(C)c1C (stereo not given)
A. inactive

Q. // outcome(item) with item = CCOc1ccc(-c2cc3nc(C4CCN(C(=O)OC(C)(C)C)CC4)c(C(=O)Nc4ccc(C(=O)OC)cc4)cn3n2)cc1
A. inactive

Q. // outcome(item) with item = COc1cc(NS(=O)(=O)c2ccc(N/C=C(\C=O)c3nc4cc(Cl)ccc4o3)cc2)nc(OC)n1
A. active

Q. // outcome(item) with item = COc1ccc(C)cc1NC(=O)CN1c2cccc3cccc(c23)S1(=O)=O
A. inactive

---

assayedTarget: DNA polymerase eta (Homo sapiens) (UniProt Q9Y253)
Sequence (Q9Y253 whole entry, looked up): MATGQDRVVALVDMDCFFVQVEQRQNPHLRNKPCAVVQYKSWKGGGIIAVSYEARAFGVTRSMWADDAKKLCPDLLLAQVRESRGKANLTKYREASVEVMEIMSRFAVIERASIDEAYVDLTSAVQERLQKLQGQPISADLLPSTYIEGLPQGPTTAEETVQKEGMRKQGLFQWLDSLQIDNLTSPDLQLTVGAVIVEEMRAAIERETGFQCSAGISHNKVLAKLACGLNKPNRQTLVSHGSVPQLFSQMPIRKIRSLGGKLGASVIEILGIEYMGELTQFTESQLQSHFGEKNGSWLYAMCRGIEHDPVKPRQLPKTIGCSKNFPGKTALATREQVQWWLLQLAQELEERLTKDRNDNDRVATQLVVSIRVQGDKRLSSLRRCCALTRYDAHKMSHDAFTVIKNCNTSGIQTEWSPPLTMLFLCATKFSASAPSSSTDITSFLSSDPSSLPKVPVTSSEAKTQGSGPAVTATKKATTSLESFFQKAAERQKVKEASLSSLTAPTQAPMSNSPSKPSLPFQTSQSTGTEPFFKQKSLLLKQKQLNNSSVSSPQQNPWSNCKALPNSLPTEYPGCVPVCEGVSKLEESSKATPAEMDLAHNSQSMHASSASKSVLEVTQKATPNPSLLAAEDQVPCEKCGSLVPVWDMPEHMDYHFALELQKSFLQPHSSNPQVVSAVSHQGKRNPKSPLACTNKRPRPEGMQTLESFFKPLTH
assayProtocol: qHTS for Inhibitors of Polymerase Eta
reportedConditions: recombinant Pol eta, fluorescent DNA replication assay; series mostly up to 114 µM
The whole screen tested about 390,000 compounds, of which about 4,700 (1.2%) were called active. Inconclusive results (about 4%) are left out. Calls come from the whole dose curve; as a rule, active = well fitted inhibition curve with a large enough effect; inconclusive = small, poorly fitted or top-dose-only effect, or another doubt; inactive = no such curve, though single readings can be large or run the other way. This is one part of a sample in which actives are shown more often than they occur.
Answer with one of the outcomes 1 (active), -1 (inactive)

Q. // outcome(item) with item = COCCNc1ncnc2c1c(-c1ccccc1)cn2-c1ccc(C)c(Cl)c1
A. -1

Q. // outcome(item) with item = Cc1ccccc1-c1nc2scc(CCNC(=O)C(=O)Nc3ccc(F)cc3F)n2n1
A. -1

Q. // outcome(item) with item = Cc1ccccc1CNC(=O)CSc1nnc(C)c2c(C)n(-c3ccccc3)nc12
A. -1

Q. // outcome(item) with item = CC(Oc1ccccc1)C(=O)Nc1oc(-c2ccco2)c(-c2ccco2)c1C#N (stereo unspecified)
A. 1

Q. // outcome(item) with item = Cc1c(OC(C)C(=O)N[C@@H](Cc2ccccc2)C(=O)O)ccc2c3c(c(=O)oc12)CCCC3 (stereo partly specified)
A. -1

Q. // outcome(item) with item = CCOC(=O)c1c(C)[nH]c2c1-c1ccccc1C(=O)C2=O
A. 1

Q. // outcome(item) with item = CCc1ccc(CNCc2c(C(=O)O)n(Cc3ccc(F)cc3Cl)c3cc(OC)ccc23)cc1
A. -1

---

assayedTarget: DNA polymerase eta (Homo sapiens)
assayProtocol: qHTS for Inhibitors of Polymerase Eta; also: potency is read from the fitted curve at half-maximal effect
reportedConditions: recombinant Pol eta, fluorescent DNA replication assay; series mostly up to 114 µM
Excerpt: The Y-family of DNA polymerases, such as Pol eta, are specifically involved in DNA repair. Pol eta copies undamaged DNA with a lower fidelity than other DNA-directed polymerases. However, it accurately replicates UV-damaged DNA; when thymine dimers are present, this polymerase inserts the complementary nucleotides in the newly synthesized DNA, thereby bypassing the lesion and suppressing the mutagenic effect of UV-induced DNA damage. […]
The campaign covered roughly 390,000 compounds. About 4,700 (1.2%) were called active. Roughly 4% stayed inconclusive and do not appear here. The sample holds actives, similar compounds and a random draw of the others, so the mix is not that of the screen.
measuredAttribute: Potency

Some compounds with recorded Potency:
compound	valueReported
O=C(NCc1ccco1)c1sc2cccc(F)c2c1Cl	inactive
O=C(c1cnn(-c2ccc(F)cc2)c1-n1cccc1)N1CCN(c2ccc(F)cc2)CC1	inactive
CCOc1ccc(C(=O)N2CCN(CCc3ccccn3)CC2)cc1	inactive
CCOC(=O)C[C@H]1c2ccc(C(F)(F)F)cc2S(=O)(=O)N1c1ccccc1	inactive
CC1=NN(c2ccc(Cl)c(C(=O)O)c2)C(=O)/C1=C/c1ccc(-c2ccccc2[N+](=O)[O-])o1	20 µM (active)
COC(=O)c1c(NC(=O)c2ccc(Cl)c(Cl)c2)sc2c1CCCC2	inactive
COc1ccc(Br)cc1CNC(=O)c1cc(=O)[nH]c2ccc(S(=O)(=O)N3CCCC3)cc12	inactive
COc1ccc(C)cc1NC(=O)c1[nH]c(C)c(C(C)=O)c1C	inactive

Q. So what's the measured Potency for this one? COC(=O)c1ccccc1NC(=O)C(Cc1ccccc1)N1Cc2ccccc2C1=O (stereo unspecified)
A. inactive

Q. So what's the measured Potency for this one? Cc1cccc(OCCCC(=O)Nc2sc3c(c2C(N)=O)CCC(C)C3)c1 (stereo unspecified)
A. inactive

Q. So what's the measured Potency for this one? Cc1sc(C2C(C#N)=C(N)N(c3cccc(Cl)c3)C3=C2C(=O)CCC3)cc1CN1CCOCC1 (stereo unspecified)
A. inactive

Q. So what's the measured Potency for this one? Cc1ccc(NC(=O)c2ccc3[nH]c(C)cc(=O)c3c2)c(C)c1
A. inactive

Q. So what's the measured Potency for this one? C[C@@H]1O[C@@H](OC[C@H]2O[C@@H](Oc3c(-c4ccc(O)cc4)oc4cc(O)cc(O)c4c3=O)[C@H](O)[C@@H](O)[C@@H]2O)[C@H](O)[C@H](O)[C@H]1O
A. inactive

Q. So what's the measured Potency for this one? C=CCn1c(=O)c(C(=O)NCc2ccc3c(c2)OCO3)c(O)c2ccccc21
A. inactive

Q. So what's the measured Potency for this one? COc1cc(Cl)ccc1Nc1ncc(C(=O)N2CCN(c3ccccc3OC)CC2)c2ccccc12
A. inactive

Q. So what's the measured Potency for this one? Cc1ccc(C(=O)Nc2cc3c(cc2N2CCCC2)n(C)c(=O)c(=O)n3C)cc1
A. inactive

Q. So what's the measured Potency for this one? CC1=C(C(=O)OCc2ccc(C)cc2)C(c2ccccc2Cl)CC(=O)N1 (stereo unspecified)
A. inactive

Q. So what's the measured Potency for this one? Clc1ccccc1CSc1nncn2c1cc1occc12
A. inactive

Q. So what's the measured Potency for this one? COc1ccc(N2CCN(c3nc(-c4ccccc4F)nc4ccccc34)CC2)cc1
A. inactive

Q. So what's the measured Potency for this one? C[C@H](CO)N1C[C@H](C)[C@H](CN(C)C(=O)Nc2ccc(C(F)(F)F)cc2)Oc2c(NC(=O)c3ccncc3)cccc2C1=O
A. 89.1 µM (active)

Q. So what's the measured Potency for this one? CCCNC(=O)C1CCN(c2nc3ccc(C)cc3[nH]2)CC1
A. inactive

Q. So what's the measured Potency for this one? CCc1ccc2ncc3c(-c4ccc(C)cc4)nn(CC(=O)NCc4ccccc4)c3c2c1
A. inactive

Q. So what's the measured Potency for this one? Cc1ccc(-c2nnc(SCC(=O)NCc3ccccc3)nc2-c2ccc(C)cc2)cc1
A. inactive

Q. So what's the measured Potency for this one? COc1cccc2c(C)c(C(=O)O)[nH]c12
A. 12.6 µM (active)

Q. So what's the measured Potency for this one? c1ccc(CSc2nnc(-c3ccco3)c(-c3ccco3)n2)cc1
A. 22.4 µM (active)

---

assayedTarget: DNA polymerase eta (Homo sapiens) (UniProt Q9Y253)
assayProtocol: qHTS for Inhibitors of Polymerase Eta
reportedConditions: recombinant Pol eta, fluorescent DNA replication assay; series mostly up to 114 µM
The whole screen tested about 390,000 compounds, of which about 4,700 (1.2%) were called active. About 4% were inconclusive and are not listed. Calls follow the shape of the dose curve; as a rule, active = well fitted inhibition curve with a large enough effect; inconclusive = small, poorly fitted or top-dose-only effect, or another doubt; inactive = no such curve, though single readings can be large or run the other way. The full list was thinned out, with actives kept by preference.
Answer with one of the outcomes Yes = active, No = inactive

Q. // outcome(item) with item = CCOc1ccc(CCNC(=O)CN(c2ccc(C)cc2)S(=O)(=O)N(C)C)cc1OCC
A. No

Q. // outcome(item) with item = COc1c(Cl)cc(C(=O)N(Cc2ccccc2F)C2CCS(=O)(=O)C2)cc1Cl (configuration not stated)
A. No

Q. // outcome(item) with item = COc1cccc(NC(=O)CSc2cc(=O)n(C)c3ccc(Cl)cc23)c1
A. No

Q. // outcome(item) with item = C#CCOCCOCCOCCNc1nc(N2CCN(C(=O)C([C@@H](C)CC)n3cc(C(N)COC(=O)C(F)(F)F)nn3)CC2)nc(N2CCN(C(=O)[C@H](CCCCN)n3cc(C(N)CC(C)C)nn3)CC2)n1 (some centres not stated)
A. No

Q. // outcome(item) with item = Cc1cccc(CC(=O)N2CC(=O)Nc3ccc(F)cc3C2c2ccccc2)c1 (configuration not stated)
A. No

Q. // outcome(item) with item = Cc1ccc(S(=O)(=O)c2nc(-c3cccs3)oc2N2CCCCC2)cc1
A. No
